biological target: Retinoic acid receptor RXR-beta (Rattus norvegicus, UniProt P49743)
Sequence (P49743 whole entry): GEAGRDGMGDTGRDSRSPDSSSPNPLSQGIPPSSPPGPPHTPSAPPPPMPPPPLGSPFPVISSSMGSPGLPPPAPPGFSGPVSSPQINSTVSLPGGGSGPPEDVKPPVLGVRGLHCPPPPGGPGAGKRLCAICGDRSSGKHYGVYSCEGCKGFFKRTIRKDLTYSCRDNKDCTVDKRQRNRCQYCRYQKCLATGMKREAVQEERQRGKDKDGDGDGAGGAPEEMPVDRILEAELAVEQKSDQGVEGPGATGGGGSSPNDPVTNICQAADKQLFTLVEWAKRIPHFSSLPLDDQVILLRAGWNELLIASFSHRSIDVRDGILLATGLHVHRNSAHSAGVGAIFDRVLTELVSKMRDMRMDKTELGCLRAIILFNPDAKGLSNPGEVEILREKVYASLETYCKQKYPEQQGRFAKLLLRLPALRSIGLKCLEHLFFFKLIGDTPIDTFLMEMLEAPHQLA
value_kind: Ki

Solved entries (count: 3):
record_smiles	target	Ki
CC(/C=C/c1sccc1-c1cc(C(C)C)cc(C(C)C)c1OCCCF)=C\C(=O)O	Retinoic acid receptor RXR-beta (Rattus norvegicus, UniProt P49743)	2.9 nM
CC(/C=C/C1=C(c2cc(C(C)C)cc(C(C)C)c2OCC(F)(F)F)CCC1)=C\C(=O)O	Retinoic acid receptor RXR-beta (Rattus norvegicus, UniProt P49743)	0.9 nM
CCCOc1c(C2=C(/C=C/C(C)=C/C(=O)O)CCC2)cc(C(C)C)cc1C(C)C	Retinoic acid receptor RXR-beta (Rattus norvegicus, UniProt P49743)	6 nM

Prompt line: # input compound: Cc1cc2c(cc1C1(c3ccc(C(=O)O)cn3)CC1)C(C)(C)CCC2(C)C ; wanted: its Ki
Response line: 20 nM

Prompt line: Quick one: C/C(=C/C=C/C(C)=C/C(=O)O)c1cc(C(C)(C)C)cc(C(C)(C)C)c1OCC(F)F
Response line: 9 nM

Prompt line: Quick one: CC(/C=C/c1ccncc1-c1cc(C(C)C)cc(C(C)C)c1OCC(F)(F)F)=C\C(=O)O
Response line: 51.5 nM

Prompt line: Quick one: CC(/C=C/c1ccccc1-c1cc(C(C)C)cc(C(C)C)c1OCC(F)F)=C\C(=O)O
Response line: 42.1 nM

----------
molecular target: Retinoic acid receptor alpha (Rattus norvegicus, UniProt A6HIV9)
Sequence (A6HIV9 whole entry): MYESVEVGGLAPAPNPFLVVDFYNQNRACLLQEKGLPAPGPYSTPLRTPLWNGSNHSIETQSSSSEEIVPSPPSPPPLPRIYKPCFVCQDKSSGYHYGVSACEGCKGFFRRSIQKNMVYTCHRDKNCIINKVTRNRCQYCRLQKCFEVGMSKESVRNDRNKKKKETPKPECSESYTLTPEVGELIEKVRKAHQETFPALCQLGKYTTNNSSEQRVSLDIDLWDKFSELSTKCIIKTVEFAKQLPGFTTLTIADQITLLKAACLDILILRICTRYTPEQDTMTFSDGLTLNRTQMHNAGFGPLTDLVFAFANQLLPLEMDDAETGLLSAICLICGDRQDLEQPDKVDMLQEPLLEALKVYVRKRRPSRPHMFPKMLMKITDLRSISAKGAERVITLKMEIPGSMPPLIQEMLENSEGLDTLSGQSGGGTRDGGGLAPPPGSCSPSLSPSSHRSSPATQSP
The following compounds are shown together with reported Ki values.

record_smiles	observed_result
CC(/C=C/c1ccncc1-c1cc(C(C)C)cc(C(C)C)c1OCC(F)(F)F)=C\C(=O)O	> 10 µM

Prompt line: # input compound: CC(/C=C/c1ccccc1-c1cc(C(C)C)cc(C(C)C)c1OCCCF)=C\C(=O)O ; wanted: its Ki
Response line: 7.5 µM

Prompt line: Quick one: CCc1cc(-c2ccsc2/C=C/C(C)=C/C(=O)O)c(OCC(F)F)c(C(C)(C)C)c1
Response line: 5.65 µM

Prompt line: Quick one: Cc1cc2c(cc1C1(c3ccc(C(=O)O)cn3)CC1)C(C)(C)CCC2(C)C
Response line: > 1 µM

Prompt line: Quick one: CC(/C=C/C1=C(c2cc(C(C)C)cc(C(C)C)c2OCC(F)F)CCC1)=C\C(=O)O
Response line: 3.73 µM

Prompt line: Quick one: CCCOc1c(C2=C(/C=C/C(C)=C/C(=O)O)CCC2)cc(C(C)C)cc1C(C)C
Response line: 1.4 µM

Prompt line: Quick one: CC(/C=C/c1ccoc1-c1cc(C(C)C)cc(C(C)C)c1OCCCF)=C\C(=O)O
Response line: 3.67 µM

Prompt line: Quick one: C/C(=C/C=C/C(C)=C/C(=O)O)c1cc(C(C)(C)C)cc(C(C)(C)C)c1OCC(F)F
Response line: 2.74 µM

----------
Biological target: Retinoic acid receptor RXR-alpha (Rattus norvegicus)
Sequence (Q05343 whole entry): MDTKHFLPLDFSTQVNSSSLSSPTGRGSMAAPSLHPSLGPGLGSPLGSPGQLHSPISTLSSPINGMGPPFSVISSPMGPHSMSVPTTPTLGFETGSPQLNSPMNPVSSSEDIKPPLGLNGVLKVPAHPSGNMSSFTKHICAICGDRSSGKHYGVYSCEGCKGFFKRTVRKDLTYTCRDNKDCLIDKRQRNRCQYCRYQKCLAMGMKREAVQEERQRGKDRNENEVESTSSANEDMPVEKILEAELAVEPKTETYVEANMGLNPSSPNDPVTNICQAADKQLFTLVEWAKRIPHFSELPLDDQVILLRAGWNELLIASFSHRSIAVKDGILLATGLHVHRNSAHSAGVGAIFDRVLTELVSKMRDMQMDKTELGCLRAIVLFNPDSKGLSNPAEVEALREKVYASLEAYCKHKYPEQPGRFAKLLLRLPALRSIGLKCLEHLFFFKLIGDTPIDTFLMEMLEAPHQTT
Assay: In vitro evaluation against RXR-alpha in CV-1 cells by cotransfection assay was determined
Assay type: cell-based
pIC50: −log10 of the molar value.
rule met means recorded pIC50 is 8 or above; rule not met means it is below 8.

Prompt line: Check if pIC50 >= 8 (inclusive). Item: CC(/C=C/c1ccccc1-c1cc(C(C)C)cc(C(C)C)c1OCCCF)=C\C(=O)O
Response line: rule not met

Prompt line: Quick one: CC(/C=C/C1=C(c2cc(C(C)C)cc(C(C)C)c2OCC(F)(F)F)CCC1)=C\C(=O)O
Response line: rule met
